Where these numbers come from: patent US6281214A

- MEASUREMENT_TARGET: dopamine D2 receptor (Rattus norvegicus, UniProt P61169)
- Construct: the receptor fraction prepared from the corpus striatum was molten and suspended; from tissue; host or cells: corpus striatum of SD rats (membrane fraction)
- Sequence (P61169 whole entry): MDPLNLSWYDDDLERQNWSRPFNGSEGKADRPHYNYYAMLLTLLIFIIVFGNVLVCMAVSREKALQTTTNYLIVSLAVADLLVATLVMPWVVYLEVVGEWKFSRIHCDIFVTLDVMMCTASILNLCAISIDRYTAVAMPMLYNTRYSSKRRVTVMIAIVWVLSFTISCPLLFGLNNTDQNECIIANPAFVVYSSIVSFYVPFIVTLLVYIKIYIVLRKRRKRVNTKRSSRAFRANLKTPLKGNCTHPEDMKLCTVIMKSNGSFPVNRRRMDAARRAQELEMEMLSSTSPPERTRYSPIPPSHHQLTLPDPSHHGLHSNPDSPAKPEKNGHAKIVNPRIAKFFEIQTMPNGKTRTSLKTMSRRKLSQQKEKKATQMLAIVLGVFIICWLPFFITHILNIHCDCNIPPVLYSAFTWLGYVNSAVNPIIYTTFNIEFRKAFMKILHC
- ASSAY_SUMMARY: dopamine D2 receptor binding test ([3H] Spiperone Binding Test)
- Set-up: species or system SD rats
- DETAILS: 1 nM [3H] Spiperone, rat corpus striatum, room temperature, 60 minutes; read-out: Ki value, dopamine D2 receptor
# note: exactly 5 nM is not below, so it is NOT MET; use MET for Ki strictly under it

Look over these answered cases.
CCCc1cc(N2CCN(CC)CC2)cc(-c2ccccc2OC)c1OC
NOT MET
CCC(F)c1cc(N2CCN(CCc3ccccn3)CC2)cc(-c2ccccc2C#N)c1Cl (stereo not drawn)
NOT MET
CCN1CCN(c2cc(C(=O)Cc3ccc(F)cc3)c(OC)c(-c3ccccc3)c2)CC1
NOT MET
CCCS(=O)(=O)Nc1cc(N2CCN(C)CC2)cc(-c2ccccc2C)c1Cl
MET
CC[C@@H](F)c1cc(N2CCN(CCO)CC2)cc(-c2ccccc2C(F)(F)F)c1Cl
NOT MET
CCCS(=O)(=O)c1cc(N2CCN(C)CC2)cc(-c2ccccc2Cl)c1Cl
NOT MET
CCN1CCN(c2cc(COCC3CC3)c(Cl)c(-c3ccccc3C)c2)CC1
NOT MET
CCC(F)c1cc(N2CCN(CC)CC2)cc(-c2ccccc2C#N)c1Cl (stereo not drawn)
MET

Ask: Is 5 nM strictly greater than the compound's reported Ki? compound: CCc1ccccc1-c1cc(N2CCN(CCO)CC2)cc(C(F)CC)c1Cl (stereo not drawn)
Result: NOT MET

Ask: Is 5 nM strictly greater than the compound's reported Ki? compound: CCN1CCN(c2cc(-c3ccccc3C)c(Cl)c(S(=O)(=O)Nc3ccccc3)c2)CC1
Result: MET

Ask: Is 5 nM strictly greater than the compound's reported Ki? compound: CCCc1cc(N2CCN(CC)CC2)cc(-c2cccc(F)c2)c1OC
Result: NOT MET

Ask: Is 5 nM strictly greater than the compound's reported Ki? compound: CCN1CCN(c2cc(-c3ccccc3)c(OC)c(S(N)(=O)=O)c2)CC1
Result: NOT MET

Ask: Is 5 nM strictly greater than the compound's reported Ki? compound: CCN1CCN(c2cc(-c3ccccc3C)c(Cl)c(N3CCCC3)c2)CC1
Result: NOT MET

----------
# Ki listing for each entry below
- MEASUREMENT_TARGET: dopamine D2 receptor (Rattus norvegicus, UniProt P61169)
- Construct: the receptor fraction prepared from the corpus striatum was molten and suspended; from tissue; host or cells: corpus striatum of SD rats (membrane fraction)
- ASSAY_SUMMARY: dopamine D2 receptor binding test ([3H] Spiperone Binding Test)
- Design: species or system SD rats
- DETAILS: 1 nM [3H] Spiperone, rat corpus striatum, room temperature, 60 minutes; read-out: Ki value, dopamine D2 receptor
Numeric only. Scale: nM

CC[C@@H](F)c1cc(N2CCN(C)CC2)cc(-c2ccccc2CF)c1Cl [Example 209]
3.9
CC[C@@H](F)c1cc(N2CCN(CC)CC2)cc(-c2ccccc2C(F)(F)F)c1Cl [Example 216]
11.3
CCC(C)c1cc(N2CCN(CC)CC2)cc(-c2ccccc2)c1Cl (centres unmarked) [Example 147]
0.45

Ask: What value of Ki has been reported for the following compound? CCCS(=O)(=O)Nc1cc(N2CCN(CC)CC2)cc(-c2ccccc2Cl)c1Cl [Example 32]
Result: 0.38
